system: Human immunodeficiency virus 1; assay: Antiviral activity against HIV1 harboring reverse transcriptase L100I mutant infected in human MT4 cells assessed as protection against virus-induced cytopathic effect incubated for 5 days by MTT assay; format: functional, organism-based; conditions: Human immunodeficiency virus 1, MT4, 120 h
Entries and their measured log10(EC50) follow.
Scale type: logarithmic (base 10). Underlying EC50 unit: nM.

Worked set:
[[record]]
compound = "Cc1cc(C#N)cc(C)c1Oc1nc(Nc2ccc(C#N)cc2)nc(N)c1Br [ETRAVIRINE]"
recorded_metric = "log10(EC50)"
experimental_value = 0.87

[[record]]
compound = "Cc1cc(C#N)cc(C)c1Oc1nc(Nc2ccc(C#N)nc2)nn2cccc12"
recorded_metric = "log10(EC50)"
experimental_value = 2.31

[[record]]
compound = "Cc1cc(/C=C/C#N)cc(C)c1Oc1nc(Nc2ccc(C#N)cc2)nn2cccc12"
recorded_metric = "log10(EC50)"
experimental_value = 0.89

[[record]]
compound = "O=C1Nc2ccc(Cl)cc2[C@@](C#CC2CC2)(C(F)(F)F)O1 [EFAVIRENZ]"
recorded_metric = "log10(EC50)"
experimental_value = 1.71


Next compound, log10(EC50) to be filled in.
IN: Entry Cc1cc(C#N)cc(C)c1Oc1nc(Nc2ccc(C#N)cc2)nc2c1ccn2CO : reported log10(EC50) = ?
OUT: 1.30
